Measured IC50, listed per entry.
Tested system: human SGLT2 (Homo sapiens, UniProt P31639)
Sequence (P31639 1-672): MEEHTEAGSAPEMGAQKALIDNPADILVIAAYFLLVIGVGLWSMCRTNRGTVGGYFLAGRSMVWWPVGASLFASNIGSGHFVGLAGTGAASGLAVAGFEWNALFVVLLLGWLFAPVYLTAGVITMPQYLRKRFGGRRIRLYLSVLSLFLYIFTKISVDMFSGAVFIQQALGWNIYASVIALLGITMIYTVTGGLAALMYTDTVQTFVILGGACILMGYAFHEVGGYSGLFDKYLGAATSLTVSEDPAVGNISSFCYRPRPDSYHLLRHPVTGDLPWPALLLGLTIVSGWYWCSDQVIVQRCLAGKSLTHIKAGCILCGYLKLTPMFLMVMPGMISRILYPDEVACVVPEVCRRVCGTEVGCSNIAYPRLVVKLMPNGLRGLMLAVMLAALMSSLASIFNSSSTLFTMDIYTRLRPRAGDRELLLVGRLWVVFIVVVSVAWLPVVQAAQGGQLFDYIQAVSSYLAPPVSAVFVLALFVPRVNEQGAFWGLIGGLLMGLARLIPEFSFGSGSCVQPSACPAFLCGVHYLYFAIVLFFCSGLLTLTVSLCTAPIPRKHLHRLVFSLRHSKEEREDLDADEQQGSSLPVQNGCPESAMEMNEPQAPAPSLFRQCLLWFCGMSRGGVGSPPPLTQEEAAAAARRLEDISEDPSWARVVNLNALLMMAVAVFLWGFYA
Procedure details: SGLT2 assay: Na-dependent 14C-AMG uptake in CHO-K1 cells stably expressing human SGLT2
Particulars: average if tested more than once
Give the number; nM is assumed, so skip it.

| Smiles structure | IC50 (nM) |
| --- | --- |
| [2H]C1([2H])Oc2ccc(Cc3cc([C@@H]4O[C@H](CO)[C@@H](F)[C@H](O)[C@H]4O)ccc3OC)cc2OC1([2H])[2H] | 13 |
| Cc1c(Cc2cc3ccccc3s2)cc([C@@H]2O[C@H](CO)[C@@H](F)[C@H](O)[C@H]2O)c(O)c1C | 7 |

Okay, now this molecule:
Data request: Give its IC50 value. Item: COc1c([C@@H]2O[C@H](CO)[C@@H](F)[C@H](O)[C@H]2O)cc(Cc2ccc3c(c2)SCCO3)c2c1CCO2
Data returned: 8

* * *

Tested system: human SGLT2 (Homo sapiens, UniProt P31639)
Construct: expressed in transfected cells
Procedure details: SGLT2 assay: Na-dependent 14C-AMG uptake in CHO-K1 cells stably expressing human SGLT2
Type: cell-based
Particulars: @ 0.3 μM
Value kind: SGLT2 %-inhibition
In your response, put the unit directly after the numeric value.

| Compound | SGLT2 %-inhibition |
| --- | --- |
| COC[C@H]1O[C@@H](c2cc(Cc3cc4ccccc4s3)c(C)cc2O)[C@H](O)[C@@H](O)[C@@H]1F | 68.1% @ 0.3 μM |
| OCCC1COc2c(Cc3ccc4c(c3)OCCO4)cc([C@@H]3O[C@H](CO)[C@@H](F)[C@H](O)[C@H]3O)cc21 (stereo partly drawn) | 42.3% @ 0.3 μM |
| CCOc1cc(O)c([C@@H]2O[C@H](CO)[C@@H](F)[C@H](O)[C@H]2O)cc1Cc1cc2ccccc2s1 | 51.0% @ 0.3 μM |
| COc1cc(OC)c([C@@H]2O[C@H](CO)[C@@H](F)[C@H](O)[C@H]2O)cc1Cc1cc2c(s1)CCN(C(C)=O)C2 | 58.9% @ 0.3 μM |
| COc1cc(Cl)c(Cc2cc3c(s2)CCN(C(=O)N2CCCC2)C3)cc1[C@@H]1O[C@H](CO)[C@@H](F)[C@H](O)[C@H]1O | 18.2% @ 0.3 μM |

Okay, now this compound:
Data request: Give its SGLT2 %-inhibition value. Item: [2H]C([2H])(c1ccc2c(c1)CCCO2)c1cc([C@@H]2O[C@H](CO)[C@@H](F)[C@H](O)[C@H]2O)ccc1OC
Data returned: 69.9% @ 0.3 μM
